A collection of binders and their measured koff
Molecular target: T1, cynomolgus serum albumin (cynomolgus)
T1 construct: also called CSA; cyno serum albumin
T1 sequence (A2V9Z4 25-608): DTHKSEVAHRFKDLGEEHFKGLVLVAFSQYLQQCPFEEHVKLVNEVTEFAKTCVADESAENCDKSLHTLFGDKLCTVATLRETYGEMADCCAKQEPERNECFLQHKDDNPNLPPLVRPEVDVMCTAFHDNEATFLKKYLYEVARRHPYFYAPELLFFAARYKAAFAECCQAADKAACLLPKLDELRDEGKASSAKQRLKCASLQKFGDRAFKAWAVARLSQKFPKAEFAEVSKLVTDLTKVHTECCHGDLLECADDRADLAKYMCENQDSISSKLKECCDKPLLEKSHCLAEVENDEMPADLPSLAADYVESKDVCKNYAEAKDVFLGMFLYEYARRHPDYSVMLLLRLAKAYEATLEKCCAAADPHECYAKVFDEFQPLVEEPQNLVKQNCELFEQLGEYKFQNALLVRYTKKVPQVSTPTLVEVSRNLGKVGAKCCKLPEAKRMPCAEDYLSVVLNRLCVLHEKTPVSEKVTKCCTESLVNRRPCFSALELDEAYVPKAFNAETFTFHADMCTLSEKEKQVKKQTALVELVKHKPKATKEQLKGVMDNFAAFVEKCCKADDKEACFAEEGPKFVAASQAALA
Experiment: SPR (Biacore T200), albumin amine-coupled to CM5, Affimer analyte, pH 7.4
measurement-kind: koff (s⁻¹)

| binder | measurement-kind | val |
| --- | --- | --- |
| HSA-41 (designed binder, also called HSA-41 parent; HSA-41 AH parent) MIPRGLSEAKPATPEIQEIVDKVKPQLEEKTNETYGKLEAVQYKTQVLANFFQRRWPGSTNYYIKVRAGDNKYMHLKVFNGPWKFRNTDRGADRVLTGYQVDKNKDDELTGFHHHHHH | koff | 0.0546 |
| HSA-20 (designed binder) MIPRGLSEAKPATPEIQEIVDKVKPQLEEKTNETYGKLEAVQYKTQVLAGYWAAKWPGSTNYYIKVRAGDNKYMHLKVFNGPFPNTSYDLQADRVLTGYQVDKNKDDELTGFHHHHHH | koff | 0.0199 |
| HSA-18 (designed binder, also called HSA-18 monomer) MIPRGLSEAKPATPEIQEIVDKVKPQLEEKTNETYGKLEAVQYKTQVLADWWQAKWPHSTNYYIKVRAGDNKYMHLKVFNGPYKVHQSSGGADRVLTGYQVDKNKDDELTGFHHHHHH | koff | 0.0261 |
| HSA-36 (designed binder) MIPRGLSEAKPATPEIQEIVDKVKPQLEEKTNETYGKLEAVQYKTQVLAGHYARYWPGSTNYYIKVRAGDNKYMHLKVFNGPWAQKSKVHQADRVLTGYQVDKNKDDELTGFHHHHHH | koff | 0.16 |
